Kindly state percent inhibition of viability for each of the entries shown.
# Test system: NKL (IL-2 2.5 ng/mL);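 note: normalised to DMSO-only wells as negative and benzethonium chloride as positive control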
# test: percent inhibition of viability; higher = more inhibition
# assaySetup: 72 h; 100 nM
Report the value in % with no unit label.

Which percent inhibition of viability is reported for this compound? CNC(=O)c1ccc(N2C(=S)N(c3ccc(C#N)c(C(F)(F)F)c3)C(=O)C23CCC3)cc1F [RD162] (max concentration tested 10000 nM)
-0.58

Which percent inhibition of viability is reported for this compound? CC[C@H](NC(=O)[C@H](C)NC)C(=O)N1C[C@@H](O)C[C@H]1Cc1c(-c2[nH]c3cc(F)ccc3c2C[C@@H]2C[C@H](O)CN2C(=O)[C@H](CC)NC(=O)[C@H](C)NC)[nH]c2cc(F)ccc12 [Birinapant] (max concentration tested 1000 nM)
19.2

Which percent inhibition of viability is reported for this compound? C[C@@H](Nc1cc(F)cc(F)c1)c1cc(C(=O)N(C)C)cc2c(=O)cc(N3CCOCC3)oc12 [AZD-8186] (max concentration tested 1000 nM)
-8.33
